- TARGET_ENTITY: CNS nicotinic receptors (Rattus norvegicus, UniProt P09483+P12390)
- Sequence (P09483 31-630): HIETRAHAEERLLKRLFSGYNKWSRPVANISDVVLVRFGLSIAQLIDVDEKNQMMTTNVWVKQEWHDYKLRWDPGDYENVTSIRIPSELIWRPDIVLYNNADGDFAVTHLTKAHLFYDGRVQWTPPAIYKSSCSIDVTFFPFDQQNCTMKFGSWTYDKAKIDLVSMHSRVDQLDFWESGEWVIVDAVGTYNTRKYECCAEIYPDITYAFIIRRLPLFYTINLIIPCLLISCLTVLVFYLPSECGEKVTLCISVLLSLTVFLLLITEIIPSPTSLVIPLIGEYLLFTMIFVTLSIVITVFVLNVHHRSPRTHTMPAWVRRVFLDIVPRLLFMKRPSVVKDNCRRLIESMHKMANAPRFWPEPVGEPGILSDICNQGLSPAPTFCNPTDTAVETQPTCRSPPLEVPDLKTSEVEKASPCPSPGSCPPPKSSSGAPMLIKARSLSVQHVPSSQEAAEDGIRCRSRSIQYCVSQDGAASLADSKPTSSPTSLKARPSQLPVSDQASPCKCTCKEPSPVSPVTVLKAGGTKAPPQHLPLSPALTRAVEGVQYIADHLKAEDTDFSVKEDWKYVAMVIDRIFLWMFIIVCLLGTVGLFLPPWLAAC
- Sequence (P12390 25-500): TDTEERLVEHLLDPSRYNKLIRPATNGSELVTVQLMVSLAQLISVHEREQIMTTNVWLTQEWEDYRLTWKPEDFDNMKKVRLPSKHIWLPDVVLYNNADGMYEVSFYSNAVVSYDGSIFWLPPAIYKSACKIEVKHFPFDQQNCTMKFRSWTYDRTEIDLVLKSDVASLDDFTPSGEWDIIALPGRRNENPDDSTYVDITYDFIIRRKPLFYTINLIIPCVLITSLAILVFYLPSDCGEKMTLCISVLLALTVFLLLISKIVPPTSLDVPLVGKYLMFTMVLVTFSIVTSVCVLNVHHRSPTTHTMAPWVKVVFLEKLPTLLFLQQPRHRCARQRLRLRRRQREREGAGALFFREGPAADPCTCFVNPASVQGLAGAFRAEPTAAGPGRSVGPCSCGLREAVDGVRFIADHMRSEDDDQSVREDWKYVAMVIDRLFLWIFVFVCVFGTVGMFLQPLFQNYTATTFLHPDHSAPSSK
- METHOD_NOTES: Isotopic rubidium ion release
OUTCOME_MEASURE: IC50

Ask: I have this compound here, CCOc1cncc(C2C3CC4CC(C3)CN2C4)c1 (stereo not shown) , and I need its recorded IC50.
Result: 0.63 µM

###

- TARGET_ENTITY: ganglia-type receptors (Rattus norvegicus, UniProt P04757+P12392)
- Construct: endogenous in cells
- Sequence (P04757 26-499): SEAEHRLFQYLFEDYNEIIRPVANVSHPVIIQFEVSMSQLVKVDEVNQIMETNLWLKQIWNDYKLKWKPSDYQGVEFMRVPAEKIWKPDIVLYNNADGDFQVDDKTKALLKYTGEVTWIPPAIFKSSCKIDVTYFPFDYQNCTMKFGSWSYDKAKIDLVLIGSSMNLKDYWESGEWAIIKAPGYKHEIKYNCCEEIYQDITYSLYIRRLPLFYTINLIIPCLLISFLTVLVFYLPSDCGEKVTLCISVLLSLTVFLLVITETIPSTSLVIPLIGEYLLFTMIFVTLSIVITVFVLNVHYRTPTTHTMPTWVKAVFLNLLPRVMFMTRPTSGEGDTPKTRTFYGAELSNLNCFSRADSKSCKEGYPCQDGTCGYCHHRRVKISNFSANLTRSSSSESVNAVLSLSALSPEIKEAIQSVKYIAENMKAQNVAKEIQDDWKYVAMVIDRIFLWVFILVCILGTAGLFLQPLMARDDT
- Sequence (P12392 21-495): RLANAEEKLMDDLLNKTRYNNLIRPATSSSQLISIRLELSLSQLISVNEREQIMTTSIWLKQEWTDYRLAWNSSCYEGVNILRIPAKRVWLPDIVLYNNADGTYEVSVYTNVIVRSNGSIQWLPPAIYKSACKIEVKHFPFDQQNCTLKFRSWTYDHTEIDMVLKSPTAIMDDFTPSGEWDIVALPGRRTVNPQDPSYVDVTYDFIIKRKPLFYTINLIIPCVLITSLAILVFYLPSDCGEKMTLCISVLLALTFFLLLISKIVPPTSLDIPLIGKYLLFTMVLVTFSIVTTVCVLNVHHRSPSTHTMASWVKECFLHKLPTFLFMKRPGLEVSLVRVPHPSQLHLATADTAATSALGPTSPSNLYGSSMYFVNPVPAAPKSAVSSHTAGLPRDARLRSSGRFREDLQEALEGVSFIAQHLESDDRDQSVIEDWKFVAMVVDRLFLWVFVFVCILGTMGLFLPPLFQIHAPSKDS
- METHOD_NOTES: Determination of interaction with ganglion receptors
- Assay type: biochemical
- TEST_CONDITIONS: percentage of the maximal activation induced by (S)-(-)-nicotine
Could you please report measured Emax for the items listed next?
Could you kindly put the unit after your number?

Ask: I have this compound here, CC(C)Oc1cncc(C2C3CC4CC(C3)CN2C4)c1 (centres unmarked) , and I need its recorded Emax.
Result: 7%

Ask: I have this compound here, c1cncc(C2C3CC4CC(C3)CN2C4)c1 (centres unmarked) , and I need its recorded Emax.
Result: 27%

Ask: I have this compound here, CCOc1cncc(C2C3CC4CC(C3)CN2C4)c1 (centres unmarked) , and I need its recorded Emax.
Result: 0%

Ask: I have this compound here, Brc1cncc(C2C3CC4CC(C3)CN2C4)c1 (centres unmarked) , and I need its recorded Emax.
Result: 50%

Ask: I have this compound here, Cl.Cl.Cl.Nc1cncc(C2C3CC4CC(C3)CN2C4)c1 (centres unmarked) [Sample No. 3, trihydrochloride] , and I need its recorded Emax.
Result: 17%
